Molecular target: human GPR68 (Homo sapiens, UniProt Q15743)
Construct: encoding full-length human GPR68 (uniprot ID: Q15743); expressed in transfected cells; host or cells: HEK293T
Sequence (Q15743 whole entry): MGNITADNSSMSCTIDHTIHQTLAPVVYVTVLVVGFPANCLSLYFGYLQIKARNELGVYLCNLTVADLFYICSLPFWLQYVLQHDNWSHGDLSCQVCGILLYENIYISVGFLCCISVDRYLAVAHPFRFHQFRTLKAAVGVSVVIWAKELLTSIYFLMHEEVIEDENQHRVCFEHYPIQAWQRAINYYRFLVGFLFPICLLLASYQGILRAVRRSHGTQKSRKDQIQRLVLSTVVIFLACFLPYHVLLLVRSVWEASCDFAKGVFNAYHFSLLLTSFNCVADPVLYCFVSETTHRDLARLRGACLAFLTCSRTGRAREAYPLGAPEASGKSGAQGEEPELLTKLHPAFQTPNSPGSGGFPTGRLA
Assay: GPR68 Biochemical Assay (Promega GloSensor cAMP assay, GPR68 antagonism)
Type: cell-based
Conditions: HEK293T cells transiently expressing hGPR68, antagonism of pH 5.5 stimulated cAMP, 15 min, read-out: hGPR68 IC50
Form field: IC50 (one value per entry).

# value of IC50, human GPR68 (Homo sapiens, UniProt Q15743), item COCc1nn2c(C(=O)NC3CCC34CC(F)(F)C4)ccnc2c1C(N)=O (stereo not drawn) = 0.5 to 5 µM

# value of IC50, human GPR68 (Homo sapiens, UniProt Q15743), item C[C@]1(O)C[C@@H](NC(=O)c2ccnc3c(C(N)=O)cnn23)C1 = 5 to 50 µM

# value of IC50, human GPR68 (Homo sapiens, UniProt Q15743), item NC(=O)c1c(C2CC2)nn2c(C(=O)NC3Cc4cscc4C3)ccnc12 = < 0.05 µM

# value of IC50, human GPR68 (Homo sapiens, UniProt Q15743), item NC(=O)c1cnn2c(C(=O)NCCC(F)(F)F)ccnc12 = 5 to 50 µM

# value of IC50, human GPR68 (Homo sapiens, UniProt Q15743), item COCc1nn2c(C(=O)N[C@@H]3Cc4ccccc4[C@@H]3C)ccnc2c1C(N)=O = < 0.05 µM

# value of IC50, human GPR68 (Homo sapiens, UniProt Q15743), item NC(=O)c1cnn2c(C(=O)NC3CC4(CCOCC4)C3)ccnc12 = 50 to 100 µM

###

Form field: IC50 (one value per entry).
Biological target: human GPR68 (Homo sapiens, UniProt Q15743)
Construct: encoding full-length human GPR68 (uniprot ID: Q15743); expressed in transfected cells; host or cells: HEK293T
Experiment: GPR68 Biochemical Assay (Promega GloSensor cAMP assay, GPR68 antagonism)
Assay type: cell-based
Conditions: HEK293T cells transiently expressing hGPR68, antagonism of pH 5.5 stimulated cAMP, 15 min, read-out: hGPR68 IC50

Below, each entry is followed by its recorded IC50 result.
COCc1nc2c(C(=O)NC3Cc4cscc4C3)ccnn2c1C(N)=O	< 50 nM
COCc1nn2c(C(=O)NC3COc4cc(F)cc(F)c4C3)ccnc2c1C(N)=O (stereo not drawn)	50 to 500 nM
COCc1nn2c(C(=O)NC3COc4ccc(Cl)cc4C3)ccnc2c1C(N)=O (stereo not drawn)	< 50 nM

# value of IC50, human GPR68 (Homo sapiens, UniProt Q15743), item COCc1nn2c(C(=O)NC3CCC(F)(F)CC3)cc(C)nc2c1C(N)=O = < 50 nM

# value of IC50, human GPR68 (Homo sapiens, UniProt Q15743), item NC(=O)c1cnn2c(C(=O)NC3CNc4ncccc4C3)ccnc12 (stereo not drawn) = 5000 to 50000 nM

# value of IC50, human GPR68 (Homo sapiens, UniProt Q15743), item COCc1nn2c(C(=O)N[C@H]3CCCc4ccccc43)ccnc2c1C(N)=O = < 50 nM

# value of IC50, human GPR68 (Homo sapiens, UniProt Q15743), item CCOCc1nn2c(C(=O)NC3Cc4ccccc4C3)ccnc2c1C(N)=O = < 50 nM

# value of IC50, human GPR68 (Homo sapiens, UniProt Q15743), item COCc1nn2c(C(=O)NC3CCC(F)(F)CC3)ccnc2c1C(N)=O = < 50 nM

# value of IC50, human GPR68 (Homo sapiens, UniProt Q15743), item COCc1nn2c(C(=O)NC3CNc4ccccc4C3)ccnc2c1C(N)=O (stereo not drawn) = < 50 nM

###

Target: human GPR68 (Homo sapiens, UniProt Q15743)
Construct: encoding full-length human GPR68 (uniprot ID: Q15743); expressed in transfected cells; host or cells: HEK293T
Test: GPR68 Biochemical Assay (Promega GloSensor cAMP assay, GPR68 antagonism)
Type: cell-based
Conditions: hGPR68 IC50, HEK293T cells transiently expressing hGPR68, antagonism of pH 5.5 stimulated cAMP, 15 min
pIC50: −log10 of the molar value.
metric.name: pIC50

NC(=O)c1c(CO)nn2c(C(=O)N[C@H]3C[C@@H](OC(F)(F)F)C3)ccnc12 [Compound 141]	> 7.30
COc1cc(C(=O)NC2CC(F)(F)C2)n2nc(C)c(C(N)=O)c2n1 [Compound 41]	5.30 to 6.30
Cc1cnc2c(C(N)=O)c(C)nn2c1C(=O)NC1CC(F)(F)C1 [Compound 38]	4.30 to 5.30

Shifting focus to the compound that follows.
Form: compound = NC(=O)c1c(C2CCOC2)nn2c(C(=O)NC3Cc4ccccc4C3)ccnc12 (stereo not shown) [Compound 37] ; pIC50 = > 7.30

###

Molecular target: human GPR68 (Homo sapiens, UniProt Q15743)
Construct: encoding full-length human GPR68 (uniprot ID: Q15743); expressed in transfected cells; host or cells: HEK293T
Test: GPR68 Biochemical Assay (Promega GloSensor cAMP assay, GPR68 antagonism)
Format: cell-based
Details: HEK293T cells transiently expressing hGPR68, antagonism of pH 5.5 stimulated cAMP, 15 min, read-out: hGPR68 IC50
pIC50: −log10 of the molar value.
metric.name: pIC50

Below, each entry is followed by its recorded pIC50 result.
COCc1nn2c(C(=O)NC3CCS(=O)(=O)c4ccccc43)cc(C)nc2c1C(N)=O (stereo not drawn)	6.30 to 7.30
NC(=O)c1c(C2CC2)nc2c(C(=O)NC3CC(F)(F)c4ccccc43)ccnn12 (stereo not drawn)	> 7.30

Shifting focus to the compound that follows.
Form: compound = COCc1nn2c(C(=O)NC3CS(=O)(=O)c4ccccc43)ccnc2c1C(N)=O (stereo not drawn) ; pIC50 = > 7.30

###

Form field: pIC50 (one value per entry).
Molecular target: human GPR68 (Homo sapiens, UniProt Q15743)
Construct: encoding full-length human GPR68 (uniprot ID: Q15743); expressed in transfected cells; host or cells: HEK293T
Test: GPR68 Biochemical Assay (Promega GloSensor cAMP assay, GPR68 antagonism)
Assay type: cell-based
Settings: HEK293T cells transiently expressing hGPR68, antagonism of pH 5.5 stimulated cAMP, 15 min, read-out: hGPR68 IC50
pIC50: −log10 of the molar value.

COCc1nn2c(C(=O)NC(C)c3ccc(F)cc3)ccnc2c1C(N)=O (stereo not shown)	6.30 to 7.30
NC(=O)c1c(C2CC2)nn2c(C(=O)N[C@H]3C[C@@H](OC(F)(F)F)C3)ccnc12	> 7.30
NC(=O)c1cnn2c(C(=O)NC3Cc4cccc(CCC(F)(F)F)c4C3)ccnc12 (stereo not shown)	5.30 to 6.30

Shifting focus to the molecule that follows.
Form: molecule = NC(=O)c1cnn2c(C(=O)NC3Cc4cccc(Cl)c4C3)ccnc12 (stereo not shown) ; pIC50 = 6.30 to 7.30

###

Form field: pIC50 (one value per entry).
Molecular target: human GPR68 (Homo sapiens, UniProt Q15743)
Construct: encoding full-length human GPR68 (uniprot ID: Q15743); expressed in transfected cells; host or cells: HEK293T
Assay: GPR68 Biochemical Assay (Promega GloSensor cAMP assay, GPR68 antagonism)
Format: cell-based
Conditions: hGPR68 IC50, HEK293T cells transiently expressing hGPR68, antagonism of pH 5.5 stimulated cAMP, 15 min
pIC50: −log10 of the molar value.

Below, each entry is followed by its recorded pIC50 result.
NC(=O)c1c(C2CCOC2)nn2c(C(=O)NC3CC(F)(F)C3)ccnc12 (centres unmarked) [Compound 45]	5.30 to 6.30
CC(C)(O)c1nn2c(C(=O)NC3CC(F)(F)C3)ccnc2c1C(N)=O [Compound 213]	6.30 to 7.30
COCc1nn2c(C(=O)N[C@H]3C[C@](C)(F)C3)ccnc2c1C(N)=O [Compound 94]	6.30 to 7.30
NC(=O)c1c(-c2ncco2)nn2c(C(=O)NC3Cc4ccccc4C3)ccnc12 [Compound 33]	> 7.30

Form: compound = COCc1nn2c(C(=O)Nc3ccc(C(F)(F)F)cn3)ccnc2c1C(N)=O [Compound 59] ; pIC50 = > 7.30

Form: compound = NC(=O)c1c(C2CCCO2)nn2c(C(=O)NC3Cc4ccccc4C3)ccnc12 (centres unmarked) [Compound 44] ; pIC50 = 6.30 to 7.30

Form: compound = COCc1cc(C(=O)NC2CC(F)(F)C2)n2nc(C)c(C(N)=O)c2n1 [Compound 39] ; pIC50 = 5.30 to 6.30

Form: compound = CC(C)OCc1nn2c(C(=O)NC3Cc4ccccc4C3)ccnc2c1C(N)=O [Compound 27] ; pIC50 = > 7.30

Form: compound = NC(=O)c1c(C2CC2)nn2c(C(=O)NC3CCC(F)(F)CC3)cnnc12 [Compound 156] ; pIC50 = 6.30 to 7.30

Form: compound = CC(C)OCc1nn2c(C(=O)NC3CC(F)(F)C3)ccnc2c1C(N)=O [Compound 28] ; pIC50 = 4.30 to 5.30

Form: compound = NC(=O)c1c(C2CCCO2)nn2c(C(=O)NC3CC(F)(F)C3)ccnc12 (centres unmarked) [Compound 43] ; pIC50 = 6.30 to 7.30
